From: patent US20260015426A1

Target: T1, hu-M-IL1RAP construct, positions S21-T367 (extracellular domain of the membrane form of human IL1RAP) (human, UniProt Q9NPH3 21-367)
T1 construct: Biotinylated when captured on the Biacore chip
T1 sequence: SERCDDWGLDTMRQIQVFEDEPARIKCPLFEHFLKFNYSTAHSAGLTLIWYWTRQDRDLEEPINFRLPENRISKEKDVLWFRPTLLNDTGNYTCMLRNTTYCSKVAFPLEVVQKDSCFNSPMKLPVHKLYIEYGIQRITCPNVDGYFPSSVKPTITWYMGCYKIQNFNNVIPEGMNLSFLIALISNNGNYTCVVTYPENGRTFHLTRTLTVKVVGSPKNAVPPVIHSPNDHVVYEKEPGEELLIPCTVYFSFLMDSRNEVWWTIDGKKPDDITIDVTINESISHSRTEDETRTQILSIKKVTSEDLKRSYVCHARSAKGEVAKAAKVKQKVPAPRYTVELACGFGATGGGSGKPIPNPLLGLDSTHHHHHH
Assay: SPR, Fab against parent Fab
Note to self: use Y only for Fold Improvement in KD @ 25° C. readings below 4 fold; a reading exactly at 4 fold still gets N.

Observe how each entry below is paired with its result.
binder | group
K8 Fab (VL A51L) (Fab, V domains shown, Fab with 8xHis tag) VH: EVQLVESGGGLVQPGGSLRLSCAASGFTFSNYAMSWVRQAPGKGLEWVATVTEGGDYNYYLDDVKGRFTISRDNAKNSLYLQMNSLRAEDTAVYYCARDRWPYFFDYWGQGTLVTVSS VL: DIQMTQSPSSLSASVGDRVTITCRASENIYSNLAWYQQKPGKSPKLLVYGLKNLADGVPSRFSGSGSGTDYTLTISSLQPEDFATYYCQHFWTTPRTFGGGTKVEIK | N
H1 Fab (VH R96A) (Fab, V domains shown, Fab with 8xHis tag) VH: EVQLVESGGGLVQPGGSLRLSCAASGFTFSNYAMSWVRQAPGKGLEWVATVTEGGDYNYYLDDVKGRFTISRDNAKNSLYLQMNSLRAEDTAVYYCARDAWPYFFDYWGQGTLVTVSS VL: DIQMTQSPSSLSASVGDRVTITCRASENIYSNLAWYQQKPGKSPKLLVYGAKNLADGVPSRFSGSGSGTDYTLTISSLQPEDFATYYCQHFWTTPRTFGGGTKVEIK | Y
K7 Fab (VL A51R) (Fab, V domains shown, Fab with 8xHis tag) VH: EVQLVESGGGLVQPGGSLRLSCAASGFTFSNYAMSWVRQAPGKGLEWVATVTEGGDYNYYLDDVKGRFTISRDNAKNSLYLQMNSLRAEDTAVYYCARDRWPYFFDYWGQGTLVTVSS VL: DIQMTQSPSSLSASVGDRVTITCRASENIYSNLAWYQQKPGKSPKLLVYGRKNLADGVPSRFSGSGSGTDYTLTISSLQPEDFATYYCQHFWTTPRTFGGGTKVEIK | N
K9 Fab (VL A51D) (Fab, V domains shown, Fab with 8xHis tag) VH: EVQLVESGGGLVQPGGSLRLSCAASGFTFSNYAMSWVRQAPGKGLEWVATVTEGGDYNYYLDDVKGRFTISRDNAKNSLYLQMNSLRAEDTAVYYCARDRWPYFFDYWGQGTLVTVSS VL: DIQMTQSPSSLSASVGDRVTITCRASENIYSNLAWYQQKPGKSPKLLVYGDKNLADGVPSRFSGSGSGTDYTLTISSLQPEDFATYYCQHFWTTPRTFGGGTKVEIK | N

Attention now shifts to the item below.
Strictly below 4 fold: is that where Fold Improvement in KD @ 25° C. of K14 Fab (VL T94I) (Fab, V domains shown, Fab with 8xHis tag) VH: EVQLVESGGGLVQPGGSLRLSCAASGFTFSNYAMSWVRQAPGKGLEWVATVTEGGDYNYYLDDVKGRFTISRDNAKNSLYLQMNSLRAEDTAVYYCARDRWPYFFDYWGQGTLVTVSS VL: DIQMTQSPSSLSASVGDRVTITCRASENIYSNLAWYQQKPGKSPKLLVYGAKNLADGVPSRFSGSGSGTDYTLTISSLQPEDFATYYCQHFWTIPRTFGGGTKVEIK sits?
Y
